molecular target: BRD4 (D1); BRD4 (BD1) (Homo sapiens, UniProt O60885); construct: first bromodomain (D1/BD1), purchased from Biogenie, Canada; assay: AlphaScreen peptide displacement assay
Readout type: IC50

Lookup: Tell me the measured IC50 of CCC1Oc2cc(NS(=O)(=O)c3ccccc3OC)ccc2NC1=O (stereo not shown) , please.
Found: 999 nM

Where do the numbers come from? From paper PMC6822579.
